All figures here come from patent US20250002470A1.

Listed compounds paired with reported half-life
# procedure.summary: In vivo pharmacokinetic evaluation in mice (IV and PO)
# experimental.setup: mouse, plasma; CD-1 mice, IV, 3 mg/kg
// note: answer is a bare numeric in h

>>> recorded_value("Cc1nc(N[C@@H]2CCCC[C@H]2O)nnc1-c1ccc(C(F)(F)F)cc1O [Embodiment 33]")
4.89
>>> recorded_value("Cc1nc(N[C@@H]2CCCN([C@H](C)CO)C2)nnc1-c1ccc(C(F)(F)F)cc1O [Embodiment 148]")
4.17
>>> recorded_value("Cc1nc(N[C@@H]2CCCN(CCO)C2)nnc1-c1ccc(C(F)(F)F)cc1O [Embodiment 44]")
4.02
>>> recorded_value("Cc1nc(N[C@@H]2CCCN(C(C)(C)CO)C2)nnc1-c1ccc(C(F)(F)F)cc1O [Embodiment 132]")
2.81
>>> recorded_value("Oc1cc(C(F)(F)F)ccc1-c1nnc(N[C@@H]2CCCC[C@H]2O)c2cc(F)ccc12 [Embodiment 136]")
6.07

-- ask Request the reported half-life associated with Cc1nc(N[C@@H]2CCCN([C@@H](C)CO)C2)nnc1-c1ccc(C(F)(F)F)cc1O [Embodiment 147]
-- reply 3.28

* * *

Listed molecules paired with reported AUC
# procedure.summary: In vivo pharmacokinetic evaluation in mice (IV and PO)
# experimental.setup: mouse, plasma; CD-1 mice, IV, 3 mg/kg

Some molecules with known AUC results, for comparison:
>>> recorded_value("Cc1nc(N[C@@H]2CCCN([C@H](C)CO)C2)nnc1-c1ccc(C(F)(F)F)cc1O [Embodiment 148]")
"4750 ng·h/mL"
>>> recorded_value("Cc1nc(N[C@@H]2CCCC[C@H]2O)nnc1-c1ccc(C(F)(F)F)cc1O [Embodiment 33]")
"4600 ng·h/mL"
>>> recorded_value("Cc1nc(N[C@@H]2CCCN(C(C)(C)CO)C2)nnc1-c1ccc(C(F)(F)F)cc1O [Embodiment 132]")
"3160 ng·h/mL"

-- ask Request the reported AUC associated with Cc1nc(N[C@@H]2CCCN([C@@H](C)CO)C2)nnc1-c1ccc(C(F)(F)F)cc1O [Embodiment 147]
-- reply 3290 ng·h/mL

-- ask Request the reported AUC associated with Oc1cc(C(F)(F)F)ccc1-c1nnc(N[C@@H]2CCCC[C@H]2O)c2cc(F)ccc12 [Embodiment 136]
-- reply 3250 ng·h/mL

-- ask Request the reported AUC associated with Cc1nc(N[C@@H]2CCCN(CCO)C2)nnc1-c1ccc(C(F)(F)F)cc1O [Embodiment 44]
-- reply 2950 ng·h/mL

* * *

# procedure.summary: In vivo pharmacokinetic evaluation in mice (IV and PO)
# experimental.setup: mouse, plasma; CD-1 mice, PO, 20 mg/kg
Simple rule here: Cmax less than 5000 ng/mL is Condition met, otherwise Condition not met.

Solved entries (count: 3):
>>> class_assignment("Cc1nc(N[C@@H]2CCCN([C@H](C)CO)C2)nnc1-c1ccc(C(F)(F)F)cc1O")
"Condition not met"
>>> class_assignment("Cc1nc(N[C@@H]2CCCN(CCO)C2)nnc1-c1ccc(C(F)(F)F)cc1O")
"Condition met"
>>> class_assignment("Cc1nc(N[C@@H]2CCCN([C@@H](C)CO)C2)nnc1-c1ccc(C(F)(F)F)cc1O")
"Condition not met"

-- ask Is Cmax strictly under 5000 ng/mL for the entry Cc1nc(N[C@@H]2CCCN(C(C)(C)CO)C2)nnc1-c1ccc(C(F)(F)F)cc1O ?
-- reply Condition met

-- ask Is Cmax strictly under 5000 ng/mL for the entry Oc1cc(C(F)(F)F)ccc1-c1nnc(N[C@@H]2CCCC[C@H]2O)c2cc(F)ccc12 ?
-- reply Condition not met

-- ask Is Cmax strictly under 5000 ng/mL for the entry Cc1nc(N[C@@H]2CCCC[C@H]2O)nnc1-c1ccc(C(F)(F)F)cc1O ?
-- reply Condition not met
